biological target: human kappa opioid receptor (Homo sapiens, UniProt P41145); construct: expressed in transfected cells; host or cells: Chinese hamster ovary cells (CHO-hKOR), membranes; experiment: biochemical
Sequence (P41145 whole entry): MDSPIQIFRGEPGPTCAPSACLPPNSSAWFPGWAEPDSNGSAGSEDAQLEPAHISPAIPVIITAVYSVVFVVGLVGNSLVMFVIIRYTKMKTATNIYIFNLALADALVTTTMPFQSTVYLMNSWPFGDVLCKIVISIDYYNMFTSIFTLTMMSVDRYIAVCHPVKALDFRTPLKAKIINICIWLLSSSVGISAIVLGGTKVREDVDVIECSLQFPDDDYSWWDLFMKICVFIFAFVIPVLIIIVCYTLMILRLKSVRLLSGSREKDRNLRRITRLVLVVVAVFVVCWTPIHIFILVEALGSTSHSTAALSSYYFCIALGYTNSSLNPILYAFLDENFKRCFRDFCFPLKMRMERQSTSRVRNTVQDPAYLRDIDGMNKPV
Listing of recorded pEC50 by entry.
For clarity, pEC50 is expressed as the negative log10 of concentration in mol/L.

Example results:
1) CNC(=O)O[C@H]1C[C@@H](C(=O)OC)[C@]2(C)CC[C@H]3C(=O)O[C@H](c4ccoc4)C[C@]3(C)C2C1=O (stereo partly drawn) [Compound 10, 2-(O—(N-methyl)formamide)-salvinorin B] :: 6.70
2) COC(=O)C1CC(N(C)C)C(=O)C2C1(C)CCC1C(=O)OC(c3ccoc3)CC12C (stereo not drawn) [Compound 211a, 2-(N,N-dimethyl)-salvinorin] :: 6.62
3) C#CCCCCOC(=O)C1CC(OC(C)=O)C(=O)C2C1(C)CCC1C(=O)OC(c3ccoc3)CC12C (stereo not drawn) :: 6.65
4) CCN[C@@H]1C[C@@H](C(=O)OC)[C@]2(C)CC[C@H]3C(=O)O[C@H](c4ccoc4)C[C@]3(C)C2C1=O (stereo partly drawn) :: 7.16

Ask: Item under review: COC(=O)[C@@H]1C[C@H](NC(=O)NC(=O)C(Cl)(Cl)Cl)C(=O)C2[C@@]1(C)CC[C@H]1C(=O)O[C@H](c3ccoc3)C[C@]21C (stereo partly drawn) . Reported pEC50?
Result: 6.33

Ask: Item under review: COC(=O)[C@@H]1C[C@H](OCc2ccccc2)C(=O)C2[C@@]1(C)CC[C@H]1C(=O)O[C@H](c3ccoc3)C[C@]21C (stereo partly drawn) . Reported pEC50?
Result: 6.79
